Recorded values, source patent US9084424B2.

# Test summary: log P by HPLC on reversed-phase column (EEC Directive 79/831 Annex V.A8)
# Format: physicochemical
# Experimental context: HPLC, reversed-phase C 18, 40° C., 0.1% aqueous formic acid and acetonitrile, linear gradient 10% to 90% acetonitrile
Value type: logP

> print(dat)
                                   molecule  quantitative.result
1  Cn1nc(C(F)F)c(C(=O)NC(C)(C)c2ccc(Cl)cc2Cl)c1Cl                 3.89

A. Cn1nc(C(F)F)c(C(=O)N(Cc2ccccc2[Si](C)(C)C)C2CCC2)c1F
B. CC(NC(=O)c1c(C(F)F)nn(C)c1Cl)c1ccccc1Cl (racemic)
Enquiry: Please indicate which item has the smaller measured logP: A versus B Your answer should be the label attached to the chosen record.
Return: B

* * *

# Test summary: log P by HPLC on reversed-phase column (EEC Directive 79/831 Annex V.A8)
# Assay type: physicochemical
# Experimental context: HPLC on reversed-phase column (C 18), 40° C., 0.1% aqueous formic acid and acetonitrile, linear gradient 10% to 90% acetonitrile
Value type: logP

Previously resolved entries follow.
> print(dat)
                                   molecule  value.type  quantitative.result
1  Cn1nc(C(F)F)c(C(=O)NC2CCc3ccccc32)c1Cl (stereo not drawn)        logP                 2.73
2  COc1ccc(CNC(=O)c2c(C(F)F)nn(C)c2Cl)cc1OC        logP                 1.36
3  CON(Cc1ncc(Cl)cc1Cl)C(=O)c1c(C(F)F)nn(C)c1Cl        logP                 2.88
4  Cn1nc(C(F)F)c(C(=O)NCc2ncc(C(F)(F)F)cc2Cl)c1Cl        logP                 3.08
5  Cn1nc(C(F)F)c(C(=O)NC2(c3cccc(C(F)(F)F)c3)CCCC2)c1Cl        logP                 3.80
6     Cn1nc(C(F)F)c(C(=O)NCc2ccc(Cl)cc2)c1F        logP                 2.55

I. CN(Cc1ccc(Oc2ccccc2)cc1)C(=O)c1c(C(F)F)nn(C)c1Cl
II. COc1ccc(CNC(=O)c2c(C(F)F)nn(C)c2F)cc1
Enquiry: Between I and II , whose measured logP reads higher? Your answer should be the label attached to the chosen record.
Return: I
(I: 3.48, II: 2.08)

a. Cn1nc(C(F)F)c(C(=O)NCc2cc(Cl)cc(Cl)c2)c1Cl
b. CC(c1ncc(Cl)cc1Cl)N(C(=O)c1c(C(F)F)nn(C)c1Cl)C1CCCC1 (stereo not drawn)
Enquiry: Please indicate which item has the smaller measured logP: a versus b Your answer should be the label attached to the chosen record.
Return: a

* * *

# Test system: Leptosphaeria nodorum
# Test summary: In vivo preventive test on Leptosphaeria nodorum (wheat)
# Experimental context: preventive spray, 500 ppm of active ingredient, evaluated 7-9 days after inoculation
Value type: Efficacy (%)
# output: bare number, implied unit %

> print(dat)
                                   compound        measured.target  value.type  quantitative.result
1  CC(c1cc(Cl)cc(Cl)c1)N(C)C(=O)c1c(C(F)F)nn(C)c1F (centres unmarked)  Leptosphaeria nodorum    Efficacy                   70
2  CC(c1ccccc1Cl)N(C)C(=S)c1c(C(F)F)nn(C)c1F (racemic)  Leptosphaeria nodorum    Efficacy                   95
3  CC(c1ncc(Cl)cc1Cl)N(C(=O)c1c(C(F)F)nn(C)c1F)C1CCCC1 (centres unmarked)  Leptosphaeria nodorum    Efficacy                   80
4  Cn1nc(C(F)F)c(C(=O)NCc2ccc(C(C)(C)C)cc2)c1F  Leptosphaeria nodorum    Efficacy                   75
5  CC(c1cc(Cl)cc(Cl)c1)N(C)C(=S)c1c(C(F)F)nn(C)c1F (centres unmarked)  Leptosphaeria nodorum    Efficacy                   70

Enquiry: Value lookup for Efficacy; key = `CC(C)c1ccccc1CNC(=O)c1c(C(F)F)nn(C)c1F`
Return: 80

Enquiry: Value lookup for Efficacy; key = `CC(C)c1ccccc1CNC(=O)c1c(C(F)F)nn(C)c1Cl`
Return: 94

Enquiry: Value lookup for Efficacy; key = `CON(Cc1ncc(Cl)cc1Cl)C(=O)c1c(C(F)F)nn(C)c1F`
Return: 70

Enquiry: Value lookup for Efficacy; key = CON(C(=O)c1c(C(F)F)nn(C)c1F)C(C)c1ccc(Cl)cc1Cl (centres unmarked)
Return: 95

Enquiry: Value lookup for Efficacy; key = `Cn1nc(C(F)F)c(C(=O)NCc2ccc(C(C)(C)C)cc2)c1Cl`
Return: 70

Enquiry: Value lookup for Efficacy; key = `Cn1nc(C(F)F)c(C(=O)N(Cc2ccc(Cl)cc2Cl)C2CCC2)c1F`
Return: 80
